- tgt: UniProt:P07711
- Sequence (P07711 114-333 limits assumed): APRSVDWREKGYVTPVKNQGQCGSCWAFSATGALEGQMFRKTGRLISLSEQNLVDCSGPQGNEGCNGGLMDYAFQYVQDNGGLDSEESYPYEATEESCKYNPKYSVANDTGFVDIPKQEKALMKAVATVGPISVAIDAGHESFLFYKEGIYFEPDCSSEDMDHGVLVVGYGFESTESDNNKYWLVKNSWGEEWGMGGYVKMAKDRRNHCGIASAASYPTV
- protocol notes: Inhibition of human cathepsin L at 10 uM relative to control
value type: inhibition (%)

smiles str: C[C@@H](OCc1ccccc1)[C@@H](C#N)NC(=O)[C@H](Cc1cccc(Cl)c1)NC(=O)c1ccc(-c2ccccc2)cc1
tgt: UniProt:P07711
measurement units: %
recorded result: 61
//
smiles str: C[C@@H](OCc1ccccc1)[C@@H](C#N)NC(=O)[C@H](Cc1cccc(Br)c1)NC(=O)c1ccc(-c2ccccc2)cc1
tgt: UniProt:P07711
measurement units: %
recorded result: 55
//
smiles str: C[C@@H](OCc1ccccc1)[C@@H](C#N)NC(=O)[C@H](Cc1cccc(Br)c1)NC(=O)Cc1ccc(-c2ccccc2)cc1
tgt: UniProt:P07711
measurement units: %
recorded result: 59

---

Test system Cathepsin S (Homo sapiens, UniProt P25774), Ki listed for each of the compounds.
value type: Ki (nM)

smiles str: C[C@@H](OCc1ccccc1)[C@@H](C#N)NC(=O)[C@H](Cc1cccc(Br)c1)NC(=O)c1ccc(-c2cccnc2)cc1
tgt: Cathepsin S (Homo sapiens, UniProt P25774)
Sequence (P25774 whole entry): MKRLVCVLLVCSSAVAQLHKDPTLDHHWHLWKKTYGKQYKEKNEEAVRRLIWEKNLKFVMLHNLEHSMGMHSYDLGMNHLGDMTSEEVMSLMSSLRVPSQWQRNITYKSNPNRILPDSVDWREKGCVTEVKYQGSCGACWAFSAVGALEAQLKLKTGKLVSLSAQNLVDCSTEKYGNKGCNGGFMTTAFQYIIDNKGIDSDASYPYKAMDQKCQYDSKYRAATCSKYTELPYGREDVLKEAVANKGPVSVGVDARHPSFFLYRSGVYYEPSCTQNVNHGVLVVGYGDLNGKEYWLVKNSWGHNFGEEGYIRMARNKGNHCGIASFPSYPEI
Ki, nM: 39.8

smiles str: C[C@@H](OCc1ccccc1)[C@@H](C#N)NC(=O)[C@H](Cc1cccc(Br)c1)NC(=O)Cc1ccc(-c2ccccc2)cc1
tgt: Cathepsin S (Homo sapiens, UniProt P25774)
Ki, nM: 501

smiles str: C[C@@H](OCc1ccccc1)[C@@H](C#N)NC(=O)[C@H](Cc1cccc(Br)c1)NC(=O)c1ccc(-c2ccccc2)cc1
tgt: Cathepsin S (Homo sapiens, UniProt P25774)
Ki, nM: 501

[a] C[C@@H](OCc1ccccc1)[C@@H](C#N)NC(=O)[C@H](Cc1cccc(Cl)c1)NC(=O)c1cccc(-c2cncnc2)c1
[b] C[C@@H](OCc1ccccc1)[C@@H](C#N)NC(=O)[C@H](Cc1cccc(Cl)c1)NS(=O)(=O)c1ccc(-c2ccccc2)cc1
[c] C[C@@H](OCc1ccccc1)[C@@H](C#N)NC(=O)[C@H](Cc1cccc(Br)c1)NC(=O)c1cc(C(C)(C)C)nn1C
Exercise: Hey, can you sort those compounds up there by Ki, smallest first? Please, when replying, give the labels in the order that was requested.
Solution: a, c, b

---

Measured pKi on Cathepsin B (Homo sapiens, UniProt P07858) follows.
pKi: −log10 of the molar value.
value type: pKi

smiles str: C[C@@H](OCc1ccccc1)[C@@H](C#N)NC(=O)[C@H](Cc1cccc(Cl)c1)NS(=O)(=O)c1cccc(-c2ccccc2)c1
value type: pKi
recorded result: 7.60
--
smiles str: C[C@@H](OCc1ccccc1)[C@@H](C#N)NC(=O)[C@H](Cc1cccc(Cl)c1)NC(=O)c1ccc(-c2cncnc2)cc1
value type: pKi
recorded result: 7.90
--
smiles str: C[C@@H](OCc1ccccc1)[C@@H](C#N)NC(=O)[C@H](Cc1cccc(Br)c1)NC(=O)c1ccc(-c2cncnc2)cc1
value type: pKi
recorded result: 7.90

[P] C[C@@H](OCc1ccccc1)[C@@H](C#N)NC(=O)[C@H](Cc1cccc(Br)c1)NC(=O)c1ccc(-c2cccnc2)cc1
[Q] C[C@@H](OCc1ccccc1)[C@@H](C#N)NC(=O)[C@H](Cc1cccc(Cl)c1)NS(=O)(=O)c1cccc(Br)c1
[R] C[C@@H](OCc1ccccc1)[C@@H](C#N)NC(=O)[C@H](Cc1cccc(Cl)c1)NS(=O)(=O)c1ccc(-c2ccccc2)cc1
Exercise: // sort entries: pKi, high to low Respond with the label ranking, as requested.
Solution: P, Q, R
